# testedOn: human muscarinic M2 receptor (Homo sapiens)
# Sequence (P08172 1-466): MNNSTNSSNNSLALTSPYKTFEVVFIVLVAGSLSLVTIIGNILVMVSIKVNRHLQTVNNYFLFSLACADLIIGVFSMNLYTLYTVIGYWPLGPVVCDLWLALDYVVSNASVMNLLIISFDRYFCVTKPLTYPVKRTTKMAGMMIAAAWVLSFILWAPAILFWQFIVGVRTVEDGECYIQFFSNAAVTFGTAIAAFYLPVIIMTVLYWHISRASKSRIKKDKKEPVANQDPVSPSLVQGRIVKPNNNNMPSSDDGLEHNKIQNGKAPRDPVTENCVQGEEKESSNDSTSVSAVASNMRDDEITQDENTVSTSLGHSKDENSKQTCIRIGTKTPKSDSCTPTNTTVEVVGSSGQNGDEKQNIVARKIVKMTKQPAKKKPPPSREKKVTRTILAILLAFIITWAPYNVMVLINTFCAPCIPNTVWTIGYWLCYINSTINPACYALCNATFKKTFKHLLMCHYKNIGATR
# procedureSummary: Alphascreen Surefire phospho-ERK1/2 functional assay, M2
pEC50: −log10 of the molar value.
# reported pEC50; entries follow
experimentalReadout: pEC50

>>> print(df.to_string())
                                    molecule  reading
 0  CCOC(=O)N1CCC2(CC(N3CCC([C@@H]4CCCN4C(=O)NC4(C)CCC4)CC3)C2)C1 (single isomer, unassigned) [2-35 Isomer 2]   < 4.70
 1  CCOC(=O)N1CCC2(CC(N3CCC(C4CCCN4C(=O)C(F)(F)F)CC3)C2)C1 (single isomer, unassigned) [2-4 Isomer 2]   < 4.70
 2  CCOC(=O)N1CCC2(CC(N3CCC(N4CC(F)(F)C[C@@H]4C(=O)N(C)OC)CC3)C2)C1 (single isomer, unassigned) [2-92 Isomer 2]   < 4.70
 3  CCOC(=O)N1CCC2(CC(N3CCC([C@@H]4CCCN4C(=O)NCCOC)CC3)C2)C1 (single isomer, unassigned) [2-31 Isomer 2]   < 4.70
 4  CCOC(=O)N1CCC2(CC(N3CCC([C@@H]4CCCN4C(=O)NOC)CC3)C2)C1 (single isomer, unassigned) [2-33 Isomer 1]   < 4.70
 5  COC(=O)N1CCC2(CC(N3CCC(n4ccc(C)n4)CC3)C2)C1 (single isomer, unassigned) [1-45 Isomer 2]     5.80
 6  CCOC(=O)N1CCC2(CC(N3CCC(C4CCCN4C(=O)NC)CC3)C2)C1 (single isomer, unassigned) [2-16 Isomer 2]   < 4.70
 7  CCOC(=O)N1CCC2(CC(N3CCC(N4CCC[C@@H]4C(=O)OC)CC3)C2)C1 (single isomer, unassigned) [2-84 Isomer 2]   < 4.70
 8  CCOC(=O)N1CCC2(CC(N3CCC([C@@H]4CCCN4C(=O)NC)CC3)C2)C1 (single isomer, unassigned) [2-17 Isomer 2]   < 4.70
 9  CCOC(=O)N1CCC2(CC(N3CCC([C@@H]4CCCN4C(=O)NC4COC4)CC3)C2)C1 (single isomer, unassigned) [2-56 Isomer 2]   < 4.70
10  CCOC(=O)N1CCC2(CC(N3CCC(N4CC(F)(F)C[C@@H]4C(=O)OC)CC3)C2)C1 (single isomer, unassigned) [2-87 Isomer 2]   < 4.70
11  CCOC(=O)N1CCC2(CC(N3CCC([C@@H]4CCCN4C(=O)N(C)C)CC3)C2)C1 (single isomer, unassigned) [2-21 Isomer 2]   < 4.70
12  CCOC(=O)N1CCC2(CC(N3CCC([C@@H]4CCCN4C(=O)N4CCCC4)CC3)C2)C1 (single isomer, unassigned) [2-32 Isomer 2]   < 4.70
13  CCOC(=O)N1CCC2(CC(N3CCC([C@@H]4CCCN4C(=O)N(C)Cc4ccccn4)CC3)C2)C1 (single isomer, unassigned) [2-63 Isomer 2]   < 4.70
14  CCOC(=O)N1CCC2(CC(N3CCC([C@@H]4CCCN4C(=O)COC)CC3)C2)C1 (single isomer, unassigned) [2-46 Isomer 2]   < 4.70
15  CCOC(=O)N1CCC2(CC(N3CCC(N4CCC[C@]4(C)C(=O)OC)CC3)C2)C1 (single isomer, unassigned) [2-95 Isomer 2]   < 4.70
16  CCOC(=O)N1CCC2(CC(N3CCC([C@@H]4CCCN4C(=O)CC(F)(F)F)CC3)C2)C1 (single isomer, unassigned) [2-53 Isomer 2]   < 4.70
17  CCOC(=O)N1CCC2(CC(N3CCC(N4CCCC4=O)CC3)C2)C1 (single isomer, unassigned) [2-111 Isomer 2]   < 4.70
18  CCOC(=O)N1CCC2(CC(N3CCC([C@@H]4CCCN4C(=O)CC)CC3)C2)C1 (single isomer, unassigned) [2-7 Isomer 2]   < 4.70
19  CCOC(=O)N1CCC2(CC(N3CCC(c4ccnn4CC)CC3)C2)C1 (single isomer, unassigned) [1-47 Isomer 2]   ≤ 4.70
20  CCOC(=O)N1CCC2(CC(N3CCC([C@@H]4CCCN4c4ccncc4)CC3)C2)C1 (single isomer, unassigned) [2-80 Isomer 2]   < 4.70
21  CCOC(=O)N1CCC2(CC(N3CCC([C@@H]4CCCN4C(=O)CCN)CC3)C2)C1 (single isomer, unassigned) [2-66 Isomer 2]   < 4.70
22  CCOC(=O)N1CCC2(CC(N3CCC([C@@H]4CCCN4C(=O)CCNC(=O)OCc4ccccc4)CC3)C2)C1 (single isomer, unassigned) [2-65 Isomer 2]   < 4.70
23  CCOC(=O)N1CCC2(CC(N3CCC(C4CCCN4C(=O)OC)CC3)C2)C1 (single isomer, unassigned) [2-11 Isomer 2]   < 4.70
24  CCOC(=O)N1CCC2(CC(N3CCC(c4cscn4)CC3)C2)C1 (single isomer, unassigned) [1-50 Isomer 2]   < 4.70

# credit: patent US9926297B2
